Listed here: items and their measured phosphorylation enrichment.
- Test system: Fer (mouse);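 note: 11-residue human phosphosite peptides and single-mutation variants displayed on the E. coli surface, counted by deep sequencing, each peptide's frequency after selection divided by its frequency in the unselected input library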;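 note: frequency after pTyr selection over input frequency; kinase dosed for 20-30% of maximal phosphorylation in three min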
- assay.method.text: phosphorylation enrichment, bacterial display (enrichment ratio); higher = better substrate or ligand; peptides without Tyr show the background
readout.type: phosphorylation enrichment

{"columns": ["sequence.entry", "readout.type", "quantitative.result"],
 "data": [
  ["ILTFKYLQKPM [KIT_Y547_YF]", "phosphorylation enrichment", 0.562],
  ["FKDYFYCWNTS [AICDA_Y146_F151S]", "phosphorylation enrichment", 1.03],
  ["TEAEPYYCSLR [NPHS1_Y1138_R1140C]", "phosphorylation enrichment", 1.8],
  ["AAYNRYDQERF [CDC73_Y293]", "phosphorylation enrichment", 0.433],
  ["ASQEEYSAMRD [KRAS_Y64_G60S]", "phosphorylation enrichment", 0.435],
  ["GGMTEYKLVVV [KRAS_Y4]", "phosphorylation enrichment", 0.423],
  ["TLLERYGMTEI [ACSF3_Y355]", "phosphorylation enrichment", 0.42],
  ["RRGTGYTLSLP [MAGEC3_Y152]", "phosphorylation enrichment", 0.564],
  ["DYTEAYNSKIK [CLK1_Y305_P307S]", "phosphorylation enrichment", 0.377],
  ["FGCGMYSHLQG [LGR4_Y848_D844G_YF]", "phosphorylation enrichment", 0.745],
  ["GEEIKDMLWLS [OTC_Y55_Y55D]", "phosphorylation enrichment", 0.428],
  ["SLLLSYFLIKW [NUP160_Y773_P768S_YF]", "phosphorylation enrichment", 0.719],
  ["PGVDIYISPNM [PADI3_Y51]", "phosphorylation enrichment", 0.814],
  ["PVGVLYEVKVF [PTS_Y128_K129E_YF]", "phosphorylation enrichment", 2.05]
]}

These data points were gathered from the supplement of paper PMC10065799.
